# target: T1, human CD19 exon1-3-his protein (human, UniProt P15391 20-186, limits assumed)
# T1 construct: made in HEK293E cells; also called membrane-distal end; not shown: His tag
# T1 sequence (looked up): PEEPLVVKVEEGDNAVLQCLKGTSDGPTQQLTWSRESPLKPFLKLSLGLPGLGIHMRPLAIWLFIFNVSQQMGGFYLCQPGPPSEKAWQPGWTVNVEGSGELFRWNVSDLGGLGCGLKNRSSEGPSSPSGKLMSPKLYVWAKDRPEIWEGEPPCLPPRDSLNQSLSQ
# experiment.summary: ELISA, coated at 2 ug/mL
# Method: Human CD19-his protein (purchased from ACROBiosystems, catalog number: CD9-H52H2) was diluted with PBS to a final concentration of 4 μg/mL, and then added to a 96-well ELISA plate at 100 μl/well. […] The OD450 nm values were read by an ELISA microplate reader (Multimode Plate Reader, EnSight, purchased from Perkin Elmer). […]
measured.property: binding result

F3.121.4-L3H1 (antibody, mouse IgG1, kappa, V domains shown, murine IgG1 constant regions; also called humanized antibody of F3.121.4) VH: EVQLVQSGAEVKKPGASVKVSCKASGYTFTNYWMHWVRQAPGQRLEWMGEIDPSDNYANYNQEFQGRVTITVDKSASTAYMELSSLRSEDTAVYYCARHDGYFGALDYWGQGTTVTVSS VL: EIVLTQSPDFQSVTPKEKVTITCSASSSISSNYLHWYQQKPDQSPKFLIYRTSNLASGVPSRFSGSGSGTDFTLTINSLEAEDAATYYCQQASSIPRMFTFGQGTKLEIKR : no binding
F4.49.11 (antibody, human IgG1, V domains shown, human-murine chimeric antibody, human IgG1) VH: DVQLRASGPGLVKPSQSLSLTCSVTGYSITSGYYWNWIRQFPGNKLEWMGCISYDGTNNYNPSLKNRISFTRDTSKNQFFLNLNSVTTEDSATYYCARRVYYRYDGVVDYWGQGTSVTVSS VL: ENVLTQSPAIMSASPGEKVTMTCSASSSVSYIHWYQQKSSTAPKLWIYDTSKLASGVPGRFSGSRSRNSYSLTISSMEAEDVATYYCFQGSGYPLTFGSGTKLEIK : no binding
